Target: human SPR (Homo sapiens (Human))
Test: Evaluation Example 2: Measurement of human SPR inhibitory activity (seven concentrations, sepiapterin absorbance at 420 nm)
Type: biochemical
Conditions: Evaluation Example 2, seven concentrations 0.14 nM to 100 nM, 240 minutes at room temperature, read-out: IC50
pIC50: −log10 of the molar value. Where a name gives a salt, the structure may show the parent alone.

# COMPOUND, pIC50
rows = [
    ("CC(C)Cn1c(=O)c(C(=O)NC2CC2)c(O)n2ncc(/C=C/C(=O)N3CCO[C@H](CO)C3)c12", 9.23),
    ("CC(C)Cn1c(=O)c(C(=O)NC2CC2)c(O)n2ncc(/C=C/C3(C)CCOCC3)c12 [Synthesis Example 242]", 8.86),
    ("CC(C)(C)Cn1c(=O)c(C(=O)NC2CC2)c(O)n2nc(-c3[nH]ncc3C(=O)N3CCOCC3)cc12 [Synthesis Example 311]", 8.92),
    ("CC(C)Cn1c(=O)c(C(=O)NC2CC2)c(O)n2ncc(/C=C/C(=O)N3CCC[C@@H]3C#N)c12", 9.12),
    ("CC(C)(C)Cn1c(=O)c(C(=O)NC2CC2)c(O)n2nc(Nc3cncc(F)n3)cc12 [Synthesis Example 356]", 8.94),
    ("CC(C)(C)Cn1c(=O)c(C(=O)NC2CC2)c(O)n2nc(N)c(/C=C/C3CCOCC3)c12 [Synthesis Example 433, hydrochloride]", 9.01),
    ("COC(C)(C)Cn1c(=O)c(C(=O)NC2CC2)c(O)n2ncc(/C=C/C(=O)N3CCOCC3)c12 [Synthesis Example 365]", 9.19),
]

---

Target: human SPR (Homo sapiens (Human), UniProt P35270)
Sequence (P35270 whole entry): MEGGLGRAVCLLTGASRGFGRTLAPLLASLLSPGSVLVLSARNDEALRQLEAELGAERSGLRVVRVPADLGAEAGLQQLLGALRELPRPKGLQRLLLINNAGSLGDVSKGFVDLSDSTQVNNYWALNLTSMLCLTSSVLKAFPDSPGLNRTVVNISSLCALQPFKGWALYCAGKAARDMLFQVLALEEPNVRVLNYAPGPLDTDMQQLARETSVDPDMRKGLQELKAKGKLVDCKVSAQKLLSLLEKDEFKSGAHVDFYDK
Assay: Evaluation Example 2: Measurement of human SPR inhibitory activity (seven concentrations, sepiapterin absorbance at 420 nm)
Assay type: biochemical
Conditions: Evaluation Example 2, seven concentrations 0.14 nM to 100 nM, 240 minutes at room temperature, read-out: IC50
Counter-ions that a name gives are not always drawn.
METRIC: IC50 (nM)

# MOLECULE, QUANTITATIVE_RESULT
records = [
    ("CC(C)Cn1c(=O)c(C(=O)NC2CC2)c(O)n2ncc(/C=C/C(=O)N3CC(F)(F)C3)c12", 0.82),
    ("CC(C)Cn1c(=O)c(C(=O)NC2CC2)c(O)n2nc(N)c(/C=C/C(C)(C)C)c12 [Synthesis Example 439, hydrochloride]", 1.61),
    ("CC(C)Cn1c(=O)c(C(=O)N[C@@H](C)C(F)(F)F)c(O)n2nc(N)c(/C=C/C(=O)N3CCC(F)(F)CC3)c12 [Synthesis Example 421, hydrochloride]", 0.77),
]

---

Biological target: human SPR (Homo sapiens (Human), UniProt P35270)
Assay: Evaluation Example 2: Measurement of human SPR inhibitory activity (seven concentrations, sepiapterin absorbance at 420 nm)
Type: biochemical
Conditions: Evaluation Example 2, seven concentrations 0.14 nM to 100 nM, 240 minutes at room temperature, read-out: IC50
Below, each entry is listed with its recorded IC50.

# COMPOUND, TARGET, IC50
records = [
    ("Cc1nn2c(O)c(C(=O)NC3CC3)c(=O)n(CC(C)C)c2c1/C=C/C(=O)N1CCCC12CCN(C)CC2 [Synthesis Example 664]", "human SPR (Homo sapiens (Human), UniProt P35270)", "0.77 nM"),
    ("CC(Cn1c(=O)c(C(=O)NC2CC2)c(O)n2ncc(/C=C/C(=O)N3CCOCC3)c12)C(F)(F)F (single isomer, unassigned) [Synthesis Example 388]", "human SPR (Homo sapiens (Human), UniProt P35270)", "1.53 nM"),
    ("C=Cc1c(N)nn2c(O)c(C(=O)NC3CC3)c(=O)n(CC(C)C)c12 [Synthesis Example 435]", "human SPR (Homo sapiens (Human), UniProt P35270)", "1.46 nM"),
    ("Cc1nn2c(O)c(C(=O)NC3CC3)c(=O)n(CC(C)(C)C)c2c1/C=C/C(=O)N1CCOC[C@@H]1C [Synthesis Example 625]", "human SPR (Homo sapiens (Human), UniProt P35270)", "1.05 nM"),
    ("CCc1nn2c(O)c(C(=O)NC3CC3)c(=O)n(CC(C)C)c2c1/C=C/C(=O)N1CCOC[C@@H]1C [Synthesis Example 653]", "human SPR (Homo sapiens (Human), UniProt P35270)", "0.74 nM"),
    ("CC(C)(C)Cn1c(=O)c(C(=O)NC2CC2)c(O)n2nc(Nc3cnc(C(F)(F)F)cn3)cc12 [Synthesis Example 15]", "human SPR (Homo sapiens (Human), UniProt P35270)", "1.61 nM"),
]

---

Target: human SPR (Homo sapiens (Human))
Assay: Evaluation Example 2: Measurement of human SPR inhibitory activity (seven concentrations, sepiapterin absorbance at 420 nm)
Assay type: biochemical
Conditions: Evaluation Example 2, seven concentrations 0.14 nM to 100 nM, 240 minutes at room temperature, read-out: IC50
pIC50: −log10 of the molar value. Counter-ions that a name gives are not always drawn.

# MOLECULE, TARGET, pIC50
data = [
    ("COCC1CCN(C(=O)/C=C/c2cnn3c(O)c(C(=O)NC4CC4)c(=O)n(CC(C)C)c23)CC1 [compound 475]", "human SPR (Homo sapiens (Human))", 9.07),
    ("Cc1cc(CNC(=O)c2cnn3c(O)c(C(=O)NC4CC4)c(=O)n(CC(C)C)c23)n(C)n1 [Synthesis Example 229]", "human SPR (Homo sapiens (Human))", 9.07),
    ("CC(C)(C)Cn1c(=O)c(C(=O)NC2CC2)c(O)n2nc(-c3cnccc3F)cc12 [Synthesis Example 295]", "human SPR (Homo sapiens (Human))", 8.61),
    ("CC(C)(C)Cn1c(=O)c(C(=O)NC2CC2)c(O)n2nc(Nc3cnc(C(=O)NCC(F)(F)F)cn3)cc12 [Synthesis Example 352]", "human SPR (Homo sapiens (Human))", 8.98),
    ("CC(C)Cn1c(=O)c(C(=O)NC2CC2)c(O)n2ncc(/C=C/C(=O)N3CCC(C(N)=O)CC3)c12 [compound 477]", "human SPR (Homo sapiens (Human))", 9.19),
    ("CC(C)Cn1c(=O)c(C(=O)NC2CC2)c(O)n2ncc(/C=C/C(=O)N3CCCC3(C)C)c12 [compound 537]", "human SPR (Homo sapiens (Human))", 9.07),
    ("CC(C)Cn1c(=O)c(C(=O)NC2CC2)c(O)n2ncc(/C=C/C(=O)N3CC[C@@H](C(N)=O)C3)c12 [compound 513]", "human SPR (Homo sapiens (Human))", 9.12),
    ("COC[C@@H]1COCCN1C(=O)/C=C/c1cnn2c(O)c(C(=O)NC3CC3)c(=O)n(CC3(F)CC3)c12 [Synthesis Example 383]", "human SPR (Homo sapiens (Human))", 9.09),
    ("CC(C)/C=C/c1c(N)nn2c(O)c(C(=O)NC3CC3)c(=O)n(CC(C)(C)C)c12 [Synthesis Example 442, hydrochloride]", "human SPR (Homo sapiens (Human))", 8.82),
    ("CC(C)Cn1c(=O)c(C(=O)NC2CC2)c(O)n2ncc(/C=C/C(=O)N3C[C@@H](C)O[C@H](C)C3)c12 [compound 491]", "human SPR (Homo sapiens (Human))", 9.09),
    ("CC(C)(C)Cn1c(=O)c(C(=O)NC2CC2)c(O)n2nc(Nc3cnc(C(C)(C)O)cn3)cc12 [Synthesis Example 349]", "human SPR (Homo sapiens (Human))", 8.87),
    ("CC(C)Cn1c(=O)c(C(=O)NC2CC2)c(O)n2ncc(CCc3cccnc3)c12 [Synthesis Example 250]", "human SPR (Homo sapiens (Human))", 9.06),
    ("Cc1nn2c(O)c(C(=O)NC3CC3)c(=O)n(CC(C)C)c2c1/C=C/C(=O)N1CCOC(C)(C)C1 [Synthesis Example 657]", "human SPR (Homo sapiens (Human))", 9.04),
    ("Cc1nn2c(O)c(C(=O)NC3CC3)c(=O)n(CC(C)C)c2c1/C=C/C(=O)N1CCO[C@H](C)C1 [Synthesis Example 679]", "human SPR (Homo sapiens (Human))", 9.03),
]

---

Molecular target: human SPR (Homo sapiens (Human))
Assay: Evaluation Example 2: Measurement of human SPR inhibitory activity (seven concentrations, sepiapterin absorbance at 420 nm)
Type: biochemical
Settings: Evaluation Example 2, seven concentrations 0.14 nM to 100 nM, 240 minutes at room temperature, read-out: IC50
pIC50: −log10 of the molar value.
Reported pIC50 by item:

# COMPOUND, pIC50
measured = [
    ("CNc1nn2c(O)c(C(=O)NC3CC3)c(=O)n(CC(C)C)c2c1/C=C/C(=O)N1[C@@H](C)COC[C@@H]1C [Synthesis Example 432]", 9.18),
    ("CC(C)(C)Cn1c(=O)c(C(=O)NC2CC2)c(O)n2nc(CN3CCCCC3)cc12 [Synthesis Example 274]", 8.02),
    ("CC(C)Cn1c(=O)c(C(=O)NC2CC2)c(O)n2ncc(/C=C/C3CCOCC3)c12 [Synthesis Example 237]", 9.04),
    ("CC(C)(C)Cn1c(=O)c(C(=O)NC2CC2)c(O)n2nc3c(c12)CN(C1CC(F)(F)C1)C(=O)N3 [Synthesis Example 410]", 8.82),
    ("COc1ncccc1-c1cc2n(CC(C)(C)C)c(=O)c(C(=O)NC3CC3)c(O)n2n1 [Synthesis Example 281]", 8.51),
    ("CC(C)Cn1c(=O)c(C(=O)NC2CC2)c(O)n2ncc(/C=C/C(=O)N3CCOC[C@H]3C)c12", 9.14),
    ("COc1ccncc1-c1cc2n(CC(C)(C)C)c(=O)c(C(=O)NC3CC3)c(O)n2n1 [Synthesis Example 282]", 8.33),
]
